test_target: T1, BCMA (Homo sapiens (Human), UniProt Q02223 1-54, limits assumed)
T1 sequence: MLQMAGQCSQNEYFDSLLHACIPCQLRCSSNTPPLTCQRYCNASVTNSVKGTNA
test_protocol: ELISA, format not described
Parameters: unit not given here
# Lookup of reported ELISA_avg keyed by entry

binder	ELISA_avg
D-domain SEQ ID NO: 165 (designed binder) MGSWYEFDERLSAIKLRLRALGGSEAELAAFEKEIAAFESELQAYKGKGNPEVEVLRAQAAYIRAILQAYRHN	16.9
D-domain SEQ ID NO: 222 (designed binder) MGSWGEFEGRLHAIRSRLSALGGSEAELAAFEKEIAAFESELQAYKGKGNPEVEVLRGYAAWIRALLQAYRHN	6.17
D-domain SEQ ID NO: 265 (designed binder) MGSWANFKYRLALIKWHLEALGGSEAELASFEIWIADFEESLQWYKGKGNPEVEALRKEAAAIRDELQAYRHN	14.3

Data origin: patent US20250026849A1
